- SUBJECT_OF_TEST: hSTK16 (Homo sapiens, UniProt O75716)
- Sequence (O75716 whole entry): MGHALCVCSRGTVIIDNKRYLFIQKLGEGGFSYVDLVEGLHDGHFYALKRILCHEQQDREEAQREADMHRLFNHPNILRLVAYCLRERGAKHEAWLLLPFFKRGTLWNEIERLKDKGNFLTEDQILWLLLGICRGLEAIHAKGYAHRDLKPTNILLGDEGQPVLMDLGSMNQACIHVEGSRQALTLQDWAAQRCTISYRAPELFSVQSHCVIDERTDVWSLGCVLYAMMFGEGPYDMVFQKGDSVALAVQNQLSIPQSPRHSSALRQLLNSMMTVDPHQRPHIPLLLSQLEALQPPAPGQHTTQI

{"SMILES_CODE": "Cc1cn(CCN2CCN(c3ccccc3-c3cc(C#N)cc(C(=O)NCCCN4CCCC4)c3)CC2)c2ccccc12", "IC50": "> 20 µM"}

----------
- SUBJECT_OF_TEST: UniProt:P35916
- Sequence (P35916 25-1363): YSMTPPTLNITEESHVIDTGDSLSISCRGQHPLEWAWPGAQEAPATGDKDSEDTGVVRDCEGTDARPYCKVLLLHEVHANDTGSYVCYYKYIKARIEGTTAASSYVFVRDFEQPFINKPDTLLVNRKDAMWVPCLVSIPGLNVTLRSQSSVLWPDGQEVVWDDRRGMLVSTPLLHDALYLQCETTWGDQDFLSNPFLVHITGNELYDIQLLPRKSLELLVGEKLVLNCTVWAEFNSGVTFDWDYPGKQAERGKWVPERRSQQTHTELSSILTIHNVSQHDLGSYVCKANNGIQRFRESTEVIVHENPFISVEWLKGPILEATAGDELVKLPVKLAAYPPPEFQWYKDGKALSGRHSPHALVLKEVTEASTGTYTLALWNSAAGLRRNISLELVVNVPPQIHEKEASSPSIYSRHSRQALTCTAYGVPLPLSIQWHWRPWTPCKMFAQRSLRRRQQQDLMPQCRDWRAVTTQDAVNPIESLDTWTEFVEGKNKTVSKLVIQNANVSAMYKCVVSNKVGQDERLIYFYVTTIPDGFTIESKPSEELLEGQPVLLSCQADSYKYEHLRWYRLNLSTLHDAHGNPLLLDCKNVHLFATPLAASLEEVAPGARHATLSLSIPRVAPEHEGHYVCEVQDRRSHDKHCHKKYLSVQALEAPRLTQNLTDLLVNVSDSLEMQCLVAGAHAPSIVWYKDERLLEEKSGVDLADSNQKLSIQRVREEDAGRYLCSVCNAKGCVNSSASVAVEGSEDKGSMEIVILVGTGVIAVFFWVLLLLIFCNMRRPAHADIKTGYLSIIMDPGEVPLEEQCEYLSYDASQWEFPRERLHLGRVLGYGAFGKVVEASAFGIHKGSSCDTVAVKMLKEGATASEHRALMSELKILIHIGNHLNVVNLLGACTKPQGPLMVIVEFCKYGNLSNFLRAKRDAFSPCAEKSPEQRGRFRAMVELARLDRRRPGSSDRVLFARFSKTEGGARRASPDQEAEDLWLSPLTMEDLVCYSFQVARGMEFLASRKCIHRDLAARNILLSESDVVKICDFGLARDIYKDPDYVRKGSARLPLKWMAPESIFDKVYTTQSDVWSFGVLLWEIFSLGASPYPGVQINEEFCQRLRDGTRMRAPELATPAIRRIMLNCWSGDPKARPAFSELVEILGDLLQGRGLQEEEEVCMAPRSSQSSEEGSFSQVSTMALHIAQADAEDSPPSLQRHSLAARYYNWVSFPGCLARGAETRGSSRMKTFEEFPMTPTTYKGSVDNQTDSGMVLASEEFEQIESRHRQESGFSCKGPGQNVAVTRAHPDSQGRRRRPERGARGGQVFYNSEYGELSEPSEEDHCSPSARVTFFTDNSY
pIC50: −log10 of the molar value.
PARAMETER_MEASURED: pIC50

{"SMILES_CODE": "Cc1cn(CCN2CCN(c3ccccc3-c3cc(C#N)cc(C(=O)NCCCN4CCCC4)c3)CC2)c2ccccc12", "REPORTED_RESULT": "< 4.70"}
